Each recorded value in this set is attributed to patent US20180228858A1.

Target: human CYP11B1 (Homo sapiens, UniProt P15538)
Construct: expressed in transfected cells; host or cells: V79MZh11B1 cell line (V79 hamster fibroblasts by own knowledge)
Sequence (P15538 25-503): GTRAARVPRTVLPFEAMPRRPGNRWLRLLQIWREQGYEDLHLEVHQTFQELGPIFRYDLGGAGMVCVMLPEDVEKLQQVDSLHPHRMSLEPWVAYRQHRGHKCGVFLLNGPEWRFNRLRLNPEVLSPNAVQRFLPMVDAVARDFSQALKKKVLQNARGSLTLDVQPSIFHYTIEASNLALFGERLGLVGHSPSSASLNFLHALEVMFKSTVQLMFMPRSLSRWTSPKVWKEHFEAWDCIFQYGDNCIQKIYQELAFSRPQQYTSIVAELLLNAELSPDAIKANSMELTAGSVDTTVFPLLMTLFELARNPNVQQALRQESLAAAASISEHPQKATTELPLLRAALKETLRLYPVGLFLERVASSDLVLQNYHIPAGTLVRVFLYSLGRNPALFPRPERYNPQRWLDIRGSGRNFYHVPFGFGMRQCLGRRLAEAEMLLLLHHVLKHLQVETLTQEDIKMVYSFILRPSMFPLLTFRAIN
Assay: CYP11B1 assay in V79MZh11B1 cells expressing recombinant human CYP11B1
Format: cell-based
Conditions: V79MZh11B1, 100 μM, mean ± SD of 2 independent experiments
endpoint_name: inhibition at 100 µM (%)

molecule	numeric_readout
C[C@H]1COC2=C1C(=O)C(=O)c1c2ccc2c1CCCC2(C)C [Cryptotanshinone]	59.9
Cc1cccc2c3c(ccc12)C1=C(C(=O)C3=O)[C@@H](C)CO1 [Dihydrotanshinone, 15,16-dihydrotanshinone I]	100
Cc1coc2c1C(=O)C(=O)c1c-2ccc2c(C)cccc12 [Tanshinone I]	81.1
Cc1coc2c1C(=O)C(=O)c1c-2ccc2c1CCCC2(C)C [Tanshinone IIA]	29.4

###

Recorded inhibition at 10 µM by entry
Biological target: human CYP11B1 (Homo sapiens, UniProt P15538)
Construct: expressed in transfected cells; host or cells: V79MZh11B1 cell line (V79 hamster fibroblasts by own knowledge)
Assay: CYP11B1 assay in V79MZh11B1 cells expressing recombinant human CYP11B1
Type: cell-based
Conditions: V79MZh11B1, 10 μM, mean ± SD of 2 independent experiments

molecule	inhibition at 10 µM, %
Cc1coc2c1C(=O)C(=O)c1c-2ccc2c1CCCC2(C)C	16.1
C[C@H]1COC2=C1C(=O)C(=O)c1c2ccc2c1CCCC2(C)C	15.4
Cc1cccc2c3c(ccc12)C1=C(C(=O)C3=O)[C@@H](C)CO1 [Dihydrotanshinone, 15,16-dihydrotanshinone I]	94
Cc1coc2c1C(=O)C(=O)c1c-2ccc2c(C)cccc12	64

###

Measured inhibition at 1 µM, listed per entry for reference.
Target: human CYP11B1 (Homo sapiens, UniProt P15538)
Construct: expressed in transfected cells; host or cells: V79MZh11B1 cell line (V79 hamster fibroblasts by own knowledge)
Assay: CYP11B1 assay in V79MZh11B1 cells expressing recombinant human CYP11B1
Format: cell-based
Conditions: V79MZh11B1, 1 μM, mean ± SD of 2 independent experiments
endpoint_name: inhibition at 1 µM (%)

molecule	numeric_readout
C[C@H]1COC2=C1C(=O)C(=O)c1c2ccc2c1CCCC2(C)C	6.4
Cc1coc2c1C(=O)C(=O)c1c-2ccc2c(C)cccc12	19.1
Cc1coc2c1C(=O)C(=O)c1c-2ccc2c1CCCC2(C)C	5.9
Cc1cccc2c3c(ccc12)C1=C(C(=O)C3=O)[C@@H](C)CO1 [Dihydrotanshinone, 15,16-dihydrotanshinone I]	43.3
